experiment: Stability test (purity and XRPD pattern after 30 days storage); type: physicochemical; conditions: day 30 at 40° C.
assay.metric: purity
Lab note: jot down the number only; don't add units.

The cases that follow already have their purity on record.
- compound: "Cc1cc(Nc2cc(C)[nH]n2)nc(N2CC3CCC(C2)N3C(=O)c2ccc(-n3cc(F)cn3)nn2)n1 [crystal form E]"
  purity: 99.70
- compound: "Cc1cc(Nc2cc(C)[nH]n2)nc(N2CC3CCC(C2)N3C(=O)c2ccc(-n3cc(F)cn3)nn2)n1 [crystal form D]"
  purity: 99.42
- compound: "Cc1cc(Nc2cc(C)[nH]n2)nc(N2CC3CCC(C2)N3C(=O)c2ccc(-n3cc(F)cn3)nn2)n1 [crystal form A]"
  purity: 99.80
- compound: "Cc1cc(Nc2cc(C)[nH]n2)nc(N2CC3CCC(C2)N3C(=O)c2ccc(-n3cc(F)cn3)nn2)n1 [crystal form B]"
  purity: 99.68

Now take the following compound into account.
Entry Cc1cc(Nc2cc(C)[nH]n2)nc(N2CC3CCC(C2)N3C(=O)c2ccc(-n3cc(F)cn3)nn2)n1 [crystal form C] ; purity = 99.51
